Target: SCD5 (Homo sapiens)
Construct: host or cells: S. cerevisiae ole1Δ strain (W303 pdr1Δ pdr3Δ background), plasmid pRS316 with TDH3 promoter and CYC1 terminator
Sequence (Q86SK9 1-330): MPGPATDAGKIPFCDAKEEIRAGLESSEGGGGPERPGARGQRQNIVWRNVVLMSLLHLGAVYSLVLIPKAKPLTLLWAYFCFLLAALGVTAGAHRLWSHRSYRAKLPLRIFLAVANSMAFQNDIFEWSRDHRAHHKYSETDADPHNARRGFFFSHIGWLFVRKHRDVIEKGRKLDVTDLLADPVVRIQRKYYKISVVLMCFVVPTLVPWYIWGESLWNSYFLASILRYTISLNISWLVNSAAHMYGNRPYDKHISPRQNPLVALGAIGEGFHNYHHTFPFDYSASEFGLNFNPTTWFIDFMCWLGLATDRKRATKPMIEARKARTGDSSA
Test: Growth inhibition of humanized yeast strain expressing SCD5 as sole desaturase
Format: cell-based
Conditions: humanized yeast strain, 40 h
IC50 reference

Compound	Reading Unit	Qual	IC50
CC(C)(C)OC(=O)N1CCC(c2nc(-c3ccc4cnc(C5COC5)n4c3)no2)CC1	µM	=	0.679
COC(=O)N1CCN(c2noc(-c3ccc4cnn(C5CS(=O)(=O)C5)c4c3)n2)CC1	µM	=	4.13
O=S(=O)(C1CCC1)N1CCC(c2noc(-c3ccc4cnn(C5COC5)c4c3)n2)CC1	µM	=	1.42
CC(C)(C)OC(=O)N1CCC(c2nc(N3CC4(COC4)C3)no2)CC1	µM	>	45
O=C(C1CC1)N1CCC(c2noc(-c3ccnc(Cl)c3)n2)CC1	µM	=	6.64
O=C1CC(n2ncc3ccc(-c4nc(N5CCn6c(Cl)cnc6C5)no4)cc32)C1	µM	=	0.01
COC(=O)N1CCC(c2nc(-c3ccc4cn[nH]c4c3)no2)CC1	µM	=	3.45
CC(C)(C)OC(=O)N1CCC(c2nc(-c3ccc4cnn(C5CC(=O)C5)c4c3)no2)CC1	µM	=	0.108
CC(C)n1ncc2ccc(-c3noc(N4C[C@H]5CN(C(=O)C(C)(C)C)C[C@H]5C4)n3)cc21	µM	=	16.7
C[C@@H]1C[C@@H](c2noc(-c3ccc4cnn(C5COC5)c4c3)n2)CCN1C(=O)C1CCC1	µM	=	0.000681
O=C(C1CC1)N1CCC(c2nc(-c3ccnc(F)c3)no2)CC1	µM	>	45
COC(=O)N1CCC(c2noc(-c3ccc4cnn([C@H]5CCOC5)c4c3)n2)CC1 [Compound 879]	µM	=	0.01
CC(C)C(=O)N1CCC(c2nc(-c3ccc4cnn(C5COC5)c4c3)no2)CC1	µM	=	0.295
O=C(C1CCC1)N1CCC(c2noc(-c3ccc4oc(=O)n(C5COC5)c4c3)n2)CC1	µM	=	1.47
COC(=O)N1CCC(c2noc(-c3ccc(F)c(N4CCOCC4)c3)n2)CC1	µM	=	0.0363
COC(=O)N1CCC(c2noc(-c3cc(Br)c4cnn(C5COC5)c4c3)n2)CC1	µM	=	0.011
CC(C)(C)OC(=O)N1CCC(N2CCN(c3ccc4cnn(C5COC5)c4c3)C2=O)CC1	µM	=	2.5
